Biological target: T1, human TROP2 protein (Sino Biological, #10428-H08H) (human, UniProt P09758 27-274)
T1 construct: bought protein; also called human Trop2 protein antigen (His tag); not shown: His tag
T1 sequence (looked up): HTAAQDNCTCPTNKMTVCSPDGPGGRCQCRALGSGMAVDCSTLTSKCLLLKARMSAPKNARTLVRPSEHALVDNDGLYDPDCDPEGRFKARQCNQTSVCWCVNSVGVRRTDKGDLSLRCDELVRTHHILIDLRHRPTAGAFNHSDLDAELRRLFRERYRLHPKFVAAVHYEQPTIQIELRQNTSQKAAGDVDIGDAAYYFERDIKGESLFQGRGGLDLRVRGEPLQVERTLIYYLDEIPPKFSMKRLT
Experiment: BLI, Octet RED96, AHC sensor
Reported koff values are given for each entry in this list.

| Binder | Unit Annotation | Readout Relation | koff |
| --- | --- | --- | --- |
| PR001142 (antibody, human IgG1, kappa, V domains shown, fully human IgG1/kappa; also called antibody No. (9)) VH: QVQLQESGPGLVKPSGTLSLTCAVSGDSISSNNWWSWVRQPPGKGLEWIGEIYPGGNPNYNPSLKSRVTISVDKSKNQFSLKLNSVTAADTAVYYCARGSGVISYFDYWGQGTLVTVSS VL: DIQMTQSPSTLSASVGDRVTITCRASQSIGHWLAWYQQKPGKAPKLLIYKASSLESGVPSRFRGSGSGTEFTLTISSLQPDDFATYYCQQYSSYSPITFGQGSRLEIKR | s⁻¹ | = | 8.78e-05 |
| PR001153 (antibody, human IgG1, kappa, V domains shown, fully human IgG1/kappa; also called antibody No. (16)) VH: QVQLQESGPGLVKPSGTLSLTCAVSGGSISSSNWWSWVRQPPGKGLEWIGEIYHDGSTDYNPSLKSRVIISVDKSKNQFSLKVRSVTAADTAVYYCARDNWGFDYWGQGTLVTVSS VL: EIVLTQFPGTLSLSPGERATLSCRSSQSVSSSYLAWYQQKPGQAPRLLISGASSRATGIPDRFSGSGSGTDFTLTISRLEPEDFAVYYCQQYGSSPRTFGQGTKVEIKR | s⁻¹ | = | 2.53e-06 |
| PR001151 (antibody, human IgG1, kappa, V domains shown, fully human IgG1/kappa; also called antibody No. (14)) VH: QVQLVESGGGVVQPGRSLRLSCAASGFTFSHYGMHWVRQAPGKGLEWVAVIWYDGIKKDYVESVKGRFTISRDNSKNTLYLQMNRLRAEDTAVYYCARDGGFGELNYYGLDVWGQGTTVTVSS VL: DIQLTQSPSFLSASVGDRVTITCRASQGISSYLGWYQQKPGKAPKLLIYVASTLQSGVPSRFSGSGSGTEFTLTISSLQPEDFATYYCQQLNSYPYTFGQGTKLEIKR | s⁻¹ | = | 0.000127 |
| PR001168 (antibody, human IgG1, kappa, V domains shown, fully human IgG1/kappa; also called antibody No. (28)) VH: QVQLVESGGGVVQPGRSLRLSCATSGFIFSSYGMHWVRQAPGKGLDWVAVIWYDGSNKYYADSVKGRFTISRDNSKNTLYLQMNSLRVEDTAVYYCARETSSWYVGYLQHWGQGTLVTVSS VL: EIVMTQSPATLSVSPGERVSLSCRASQSVNGNVAWYQQKPGQAPRLLIYAASTRATGIPARFSGSGSGTESTLTISSLQSEDCAVYYCQQYNNWPSTFGPGTKLEVTR | s⁻¹ | = | 0.00014 |
| PR001164 (antibody, human IgG1, kappa, V domains shown, fully human IgG1/kappa; also called antibody No. (25)) VH: QVQLQQSGPGLVKPSQTLSLTCAISGDSVSSTSAVWNWIRQSPSRGLEWLGRTCYRSKWYNDYAVSVKSRITITPDTSKNQFSLRLNPVTPEDTAVYYCARGDFRFDSWGQGTLVTVSS VL: DIQLTQSPSFLSASVGDRVTITCRASQGISSYLAWYQQKPGKAPKLLIYAASTLQSGVPSRFSGSGSGTEFTLTISSLQPEDFATYYCQQVKIYPLTFGGGTKVEIKR | s⁻¹ | = | 0.000262 |
| PR001162 (antibody, human IgG1, kappa, V domains shown, fully human IgG1/kappa; also called antibody No. (23)) VH: QVQLVESGGGVVQPGTSLRLSCVASGFTFSNDGMHWVRQAPGMGLEWVAIMWFDGGSKYYADSVKGRFTISRDNSKNTLYLQMNNLRAEDTAVYYCARDHPHYLGSGSFDYWGQGTLVTVSS VL: EIVLTQSPATLSLSPGERATLSCRASQSVSSYLAWYQQKPGQAPRLLIYDASNRATGIPARFSGSGSGTDFTLTISSLQAEDVAVYYCQQYYSTPYTFGQGTKLEIKR | s⁻¹ | = | 0.000507 |
| PR001152 (antibody, human IgG1, kappa, V domains shown, fully human IgG1/kappa; also called antibody No. (15)) VH: QVQLVESGGAVVQPGRSLRLSCAASGFTFSHYGMHWVRQAPGKGLEWVAVIWYDGIKSYYVESVKGRFTISRDNSKNTLYLQMDRLRAEDTAVYYCARDGGFGESNYYGLDVWGQGTTVTVSS VL: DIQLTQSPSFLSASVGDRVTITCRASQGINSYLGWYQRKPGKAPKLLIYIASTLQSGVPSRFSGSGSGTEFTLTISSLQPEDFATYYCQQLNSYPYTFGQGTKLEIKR | s⁻¹ | = | 2.08e-05 |
| PR001158 (antibody, human IgG1, kappa, V domains shown, fully human IgG1/kappa; also called antibody No. (20)) VH: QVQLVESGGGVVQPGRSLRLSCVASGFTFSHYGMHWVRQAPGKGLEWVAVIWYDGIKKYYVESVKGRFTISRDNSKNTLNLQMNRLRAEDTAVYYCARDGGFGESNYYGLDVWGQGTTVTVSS VL: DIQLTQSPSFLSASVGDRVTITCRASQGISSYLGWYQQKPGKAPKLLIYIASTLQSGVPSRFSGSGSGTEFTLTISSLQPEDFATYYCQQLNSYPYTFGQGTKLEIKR | s⁻¹ | = | 2.05e-05 |
| PR001159 (antibody, human IgG1, kappa, V domains shown, fully human IgG1/kappa; also called antibody No. (21)) VH: QVQLVESGGGVVQPGRSLRLSCEASGFTFSHYGMHWVRQAPGKGLEWVAVIWYDGIKTNYVESVKGRFTISRDNSKNTLNLQMNRLRAEDTAVYYCARDGGFGESNYYGLDVWGQGTTVTVSS VL: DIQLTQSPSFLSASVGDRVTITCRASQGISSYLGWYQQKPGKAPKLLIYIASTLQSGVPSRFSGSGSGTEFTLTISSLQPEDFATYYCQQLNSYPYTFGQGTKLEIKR | s⁻¹ | < | 1e-07 |
| PR001165 (antibody, human IgG1, kappa, V domains shown, fully human IgG1/kappa; also called antibody No. (26)) VH: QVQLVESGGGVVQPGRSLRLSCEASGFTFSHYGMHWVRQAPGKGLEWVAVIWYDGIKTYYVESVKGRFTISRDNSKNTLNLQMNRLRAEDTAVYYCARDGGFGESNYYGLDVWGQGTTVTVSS VL: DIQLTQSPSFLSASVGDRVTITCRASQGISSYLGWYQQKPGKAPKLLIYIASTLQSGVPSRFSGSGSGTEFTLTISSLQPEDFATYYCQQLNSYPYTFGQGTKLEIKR | s⁻¹ | < | 1e-07 |
